target: BTK-WT (Homo sapiens, UniProt Q06187); construct: purified from insect cells as a full-length construct containing an N-terminal 6X-His tag; His6 (N); made in house; host or cells: insect cells (baculovirus Sf21 in Method B); assay: Btk in vitro inhibitory activity (one of Method A TR-FRET, Method B electrophoretic mobility shift, Method C radiometric filter binding); assay type: biochemical; conditions: E compounds, Table 17; read-out: IC50 BTK-WT
Sequence (Q06187 whole entry): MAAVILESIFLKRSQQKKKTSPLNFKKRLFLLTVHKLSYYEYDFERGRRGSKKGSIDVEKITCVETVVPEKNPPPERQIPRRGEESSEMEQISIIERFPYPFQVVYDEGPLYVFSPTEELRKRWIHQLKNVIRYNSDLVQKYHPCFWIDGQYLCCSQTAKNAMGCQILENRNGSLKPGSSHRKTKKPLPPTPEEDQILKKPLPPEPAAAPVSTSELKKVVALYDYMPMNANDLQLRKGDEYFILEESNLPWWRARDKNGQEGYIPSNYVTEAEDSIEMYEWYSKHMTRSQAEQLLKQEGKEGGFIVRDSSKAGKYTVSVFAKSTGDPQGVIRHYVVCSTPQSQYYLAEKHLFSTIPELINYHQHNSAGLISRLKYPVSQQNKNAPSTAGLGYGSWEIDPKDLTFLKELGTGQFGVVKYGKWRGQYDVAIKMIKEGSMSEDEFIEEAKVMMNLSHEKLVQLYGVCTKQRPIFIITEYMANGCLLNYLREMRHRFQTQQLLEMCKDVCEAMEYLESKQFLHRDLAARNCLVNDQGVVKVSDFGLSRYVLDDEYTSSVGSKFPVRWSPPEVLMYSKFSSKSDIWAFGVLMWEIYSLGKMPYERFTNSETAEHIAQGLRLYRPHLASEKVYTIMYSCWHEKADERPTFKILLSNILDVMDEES
// reported IC50 per item

Recorded results for 2 compounds are shown here.
# Molecule, IC50
records = [
    ("CCC(O)(CC)c1ccc(C(=O)N[C@@H]2CCCN(c3cnc(C(N)=O)c(Nc4cnn(C)c4)n3)[C@@H]2C)cc1", "≤ 10 nM"),
    ("C=CC(=O)N[C@@H]1CCCC[C@@H]1Nc1nnc(C(N)=O)c(Nc2ccc(C(C)C)cc2)n1", "10 to 100 nM"),
]

IC50 reading for `C=CC(=O)N1CCC[C@@H](Nc2nnc(C(N)=O)c(Nc3ccc(C4(C#N)CCCC4)cc3)n2)C1` : ≤ 10 nM

IC50 reading for `C=CC(=O)N1CCC[C@@H](N(C)c2cnc(C(N)=O)c(Nc3ccc(C(C)C)cc3)n2)C1` : ≤ 10 nM

IC50 reading for `CN1C(=O)CCc2cc(Nc3nc(N[C@@H]4CCCN(C(=O)OC(C)(C)C)C4)nnc3C(N)=O)ccc21` : 10 to 100 nM

* * *

// reported pIC50 per item
target: LCK (Homo sapiens, UniProt P06239); assay: Inhibition of a panel of kinases, in vitro HotSpot kinase assay: LCK; assay type: biochemical; settings: D-compounds panel data; 1 μM ATP; read-out: IC50 LCK
Sequence (P06239 whole entry): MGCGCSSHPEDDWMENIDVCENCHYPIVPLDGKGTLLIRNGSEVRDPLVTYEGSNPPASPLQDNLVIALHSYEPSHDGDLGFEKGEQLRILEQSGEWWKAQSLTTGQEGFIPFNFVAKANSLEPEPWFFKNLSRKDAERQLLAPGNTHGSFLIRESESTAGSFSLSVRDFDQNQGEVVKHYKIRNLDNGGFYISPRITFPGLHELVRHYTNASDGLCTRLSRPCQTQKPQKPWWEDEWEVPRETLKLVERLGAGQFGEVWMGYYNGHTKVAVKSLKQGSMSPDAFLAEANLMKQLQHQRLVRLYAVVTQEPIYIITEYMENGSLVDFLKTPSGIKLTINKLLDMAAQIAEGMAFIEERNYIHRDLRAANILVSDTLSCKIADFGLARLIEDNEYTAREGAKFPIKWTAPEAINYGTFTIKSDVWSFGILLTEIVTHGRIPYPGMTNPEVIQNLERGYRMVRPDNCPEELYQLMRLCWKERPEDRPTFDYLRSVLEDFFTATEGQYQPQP
pIC50: −log10 of the molar value.

Simply: `C[C@@H]1[C@H](NC(=O)c2ccc(C3CC3)cc2)CCCN1c1cnc(C(N)=O)c(Nc2cnn(CCN(C)C)c2)n1` , LCK (Homo sapiens, UniProt P06239), pIC50 = 6.00 to 7.00

* * *

molecular target: BTK-WT (Homo sapiens); construct: purified from insect cells as a full-length construct containing an N-terminal 6X-His tag; His6 (N); made in house; host or cells: insect cells (baculovirus Sf21 in Method B); assay: Btk in vitro inhibitory activity (one of Method A TR-FRET, Method B electrophoretic mobility shift, Method C radiometric filter binding); type: biochemical; settings: D-compounds panel data; read-out: IC50 BTK-WT
Value Kind: IC50

# Molecule, Target Or Test System, Value Kind, Observed
records = [
    ("CCN(CC)c1ccc(C(=O)N[C@@H]2CCCN(c3cnc(C(N)=O)c(Nc4cnn(C)c4)n3)[C@@H]2C)cc1", "BTK-WT (Homo sapiens)", "IC50", "≤ 10 nM"),
    ("C[C@@H]1[C@H](NC(=O)c2ccc3scnc3c2)CCCN1c1cnc(C(N)=O)c(Nc2cnn(C)c2)n1", "BTK-WT (Homo sapiens)", "IC50", "≤ 10 nM"),
]

IC50 reading for `C[C@@H]1[C@H](NC(=O)c2cnc(C3CC3)nc2)CCCN1c1cnc(C(N)=O)c(Nc2cnn(C)c2)n1` : ≤ 10 nM

* * *

// reported IC50 per item
target: TEC (Homo sapiens); assay: Inhibition of a panel of kinases, in vitro HotSpot kinase assay: TEC; type: biochemical; details: D-compounds panel data; 1 μM ATP
Sequence (P42680 whole entry): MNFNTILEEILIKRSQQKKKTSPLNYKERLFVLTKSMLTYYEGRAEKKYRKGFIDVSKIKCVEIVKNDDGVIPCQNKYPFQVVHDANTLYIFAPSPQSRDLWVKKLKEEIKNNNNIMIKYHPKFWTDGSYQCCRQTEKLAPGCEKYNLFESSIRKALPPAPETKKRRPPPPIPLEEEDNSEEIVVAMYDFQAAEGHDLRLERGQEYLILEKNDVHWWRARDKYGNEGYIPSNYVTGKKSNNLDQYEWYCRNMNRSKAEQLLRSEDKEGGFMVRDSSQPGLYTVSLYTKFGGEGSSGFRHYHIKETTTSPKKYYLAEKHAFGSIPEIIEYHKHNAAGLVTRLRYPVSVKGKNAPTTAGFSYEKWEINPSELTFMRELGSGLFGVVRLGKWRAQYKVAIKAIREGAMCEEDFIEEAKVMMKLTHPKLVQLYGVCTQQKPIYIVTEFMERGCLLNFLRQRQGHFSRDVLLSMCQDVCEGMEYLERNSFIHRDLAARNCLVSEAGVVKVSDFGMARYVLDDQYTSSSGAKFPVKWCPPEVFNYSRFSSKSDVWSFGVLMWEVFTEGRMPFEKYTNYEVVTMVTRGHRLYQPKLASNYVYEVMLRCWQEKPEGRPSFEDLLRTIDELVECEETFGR

# Molecule, IC50
measured = [
    ("CC(=O)N1CCC(n2cc(Nc3nc(N4CCC[C@@H](NC(=O)c5ccc(C6CC6)cc5)[C@H]4C)cnc3C(N)=O)cn2)CC1", "≤ 10 nM"),
    ("C[C@@H]1[C@H](NC(=O)N(C)C)CCCN1c1cnc(C(N)=O)c(Nc2cnn(C)c2)n1", "10 to 100 nM"),
    ("C[C@@H]1[C@H](NC(=O)c2ccc(C3CC3)cc2Cl)CCCN1c1cnc(C(N)=O)c(Nc2cnn(C)c2)n1", "10 to 100 nM"),
    ("CCn1cc(Nc2nc(N3CCC[C@@H](NC(=O)c4ccc(C5CC5)cc4)[C@H]3C)cnc2C(N)=O)cn1", "10 to 100 nM"),
]

// next item, IC50 requested
IC50 reading for `CN1CCN(c2ccc(Nc3nc(N4CCC[C@@H](n5ccc6cc(C7CC7)cc(F)c6c5=O)C4)cnc3C(N)=O)cc2)CC1` : 10 to 100 nM
